The origin of these recorded values is paper PMC9316000.

# experiment: Plasma protein binding, rat plasma
# Format: in vitro ADME
# condition-info: rat, rats, concentration range 50–400 ng/mL, read-out: plasma protein binding rate (converted)
endpoint-name: fraction unbound

Value lookup for fraction unbound; key = CC1(C)OC2CC(=O)OCC23C1C/C(=N\OCCN1CCOCC1)C1(C)C3CC[C@@]2(C)[C@H](c3ccoc3)OC(=O)C3OC312 (stereo partly shown) [HY-071085] ~0.25

* * *

# experiment: Pharmacokinetics after single-dose intragastric administration in rats
# Format: in vivo, Sprague Dawley rats
# condition-info: Sprague-Dawley, rat, plasma, po; male rats, S-IG 13 mg/kg
endpoint-name: Cmax (ng/mL)
Value expressed in ng/mL; do not type the unit.

Value lookup for Cmax; key = CC1(C)OC2CC(=O)OCC23C1C/C(=N\OCCN1CCOCC1)C1(C)C3CC[C@@]2(C)[C@H](c3ccoc3)OC(=O)C3OC312 (stereo partly shown) 381

* * *

# experiment: Pharmacokinetics after single-dose intragastric administration in rats
# Assay type: in vivo, Sprague Dawley rats
# condition-info: Sprague-Dawley, rat, plasma, po; female rats, S-IG 6.5 mg/kg; read-out: Vss/F
endpoint-name: Vd/F (L/kg)
Value expressed in L/kg; do not type the unit.

Value lookup for Vd/F; key = CC1(C)OC2CC(=O)OCC23C1C/C(=N\OCCN1CCOCC1)C1(C)C3CC[C@@]2(C)[C@H](c3ccoc3)OC(=O)C3OC312 (stereo partly shown) [HY-071085] 36.3

* * *

# experiment: Pharmacokinetics after single-dose intravenous administration in rats
# Assay type: in vivo, Sprague Dawley rats
# condition-info: Sprague-Dawley, rat, plasma; female rats, S-IV 3.25 mg/kg
endpoint-name: half-life (min)
Value expressed in min; do not type the unit.

Value lookup for half-life; key = CC1(C)OC2CC(=O)OCC23C1C/C(=N\OCCN1CCOCC1)C1(C)C3CC[C@@]2(C)[C@H](c3ccoc3)OC(=O)C3OC312 (stereo partly shown) [HY-071085] 20.4

* * *

# experiment: Pharmacokinetics after single-dose intragastric administration in rats
# Assay type: in vivo, Sprague Dawley rats
# condition-info: Sprague-Dawley, rat, plasma, po; female rats, S-IG 6.5 mg/kg
endpoint-name: Tmax

Value lookup for Tmax; key = CC1(C)OC2CC(=O)OCC23C1C/C(=N\OCCN1CCOCC1)C1(C)C3CC[C@@]2(C)[C@H](c3ccoc3)OC(=O)C3OC312 (stereo partly shown) 54 min

* * *

# experiment: Pharmacokinetics after repeated-dose intragastric administration in rats
# Format: in vivo, Sprague Dawley rats
# condition-info: Sprague Dawley, rat, plasma, po; male rats, R-IG 6.5 mg/kg, 28 days
# Description: Male and female rats were given HY-071085 (6.5 mg/kg) by gastric gavage twice a day for 28 days. […] According to the obtained plasma concentration time data, the pharmacokinetic parameters were calculated using Phoenix WinNonlin 8.1 software. […] Due to the drug having significant individual differences in rats, it could not be uniformly fitted with a PK atrioventricular model; as such, the pharmacokinetic parameters analyzed in this study were calculated using a non-atrioventricular model. […]
endpoint-name: MRT at 28 days (h)
Value expressed in h; do not type the unit.

Value lookup for MRT at 28 days; key = CC1(C)OC2CC(=O)OCC23C1C/C(=N\OCCN1CCOCC1)C1(C)C3CC[C@@]2(C)[C@H](c3ccoc3)OC(=O)C3OC312 (stereo partly shown) [HY-071085] 1.74
